- MEASURED_ON: T1, PSMA Fab (006 PSMA Fab) (biotinylated (site not stated))
- T1 construct: also called Anti-PSMA Fab
- ASSAY_DETAILS: clonal phage ELISA on biotinylated PSMA Fab captured on neutravidin, anti-M13 HRP detection, no PSMA antigen
Where no end group is shown, it is not given here.
Exercise: state measured Phage binding ELISA signal, Anti-PSMA Fab for each of the binders provided.

Value of Phage binding ELISA signal, Anti-PSMA Fab reported for the binder IMPKCEPIWMCAGF (cysteine pairing not given here; also: peptide displayed as fusion to phage pIII) [Phage-2952] is 2.27

Record summary for PEFVCKPSWMCQGF [Phage-2959] : reported Phage binding ELISA signal, Anti-PSMA Fab = 2.26

Item: EQPLCTPQWMCWGF [Phage-2958] | Phage binding ELISA signal, Anti-PSMA Fab: 2.27

// WDHLCKPDWMCLGF [Phage-2949] : Phage binding ELISA signal, Anti-PSMA Fab value = 2.28

Looking up TLMRCEPSWMCQGF [Phage-2954] , I found its Phage binding ELISA signal, Anti-PSMA Fab recorded as 2.27
